Below: a set of entries, each annotated with reported melting point.

| GIVEN SMILES | melting point |
| --- | --- |
| C=Cc1ccc(O)c(-n2nc3ccccc3n2)c1 | 98 to 99 °C |
| S=C=Nc1ccccc1N1CCCCC1 | 143 to 145 °C |
| CCOc1ccc(Cl)c([N+](=O)[O-])c1 | 48 to 49.5 °C |
| c1ccc(CCc2n[nH]c(NCCCCOc3cccc(CN4CCCCC4)c3)n2)cc1 | 146 to 147 °C |
| CCOc1ccc(-n2c(Cl)ccc2-c2ccc(S(N)(=O)=O)cc2)cc1 | 124 to 125 °C |

Task item: # return recorded melting point for input CN1CCN(Cc2ccc(NC(=O)c3ccc(Cl)c(C#Cc4ccc(NC5CCC5)nn4)c3)cc2C(F)(F)F)CC1
Reply: 132 to 133 °C

Task item: # return recorded melting point for input O=S(=O)(c1ccccc1)c1c(-c2ccc(Cl)cc2)[nH]c(Br)c1Br
Reply: > 200 °C

Task item: # return recorded melting point for input CN1C(=O)CC[C@]2(C)c3ccc(-c4cc(F)c([N+](=O)[O-])cc4F)cc3CC[C@@H]12
Reply: 130 to 140 °C

Where do the numbers come from? From a melting point compilation (Tetko et al.; mined from patent text by program, amines drawn as free bases though some values may be those of a salt).
